Tested on: P-glycoprotein (human MDR1)
ASSAY: MDR1-MDCK II cell permeability
STATED CONDITIONS: dog, MDCK-MDR1, pH 7.4
MEASURE: Papp B→A at 90 min, 10 µM (×10⁻⁶ cm/s)
Give the value in ×10⁻⁶ cm/s but do not write ×10⁻⁶ cm/s after it.

Query block: Read off the recorded Papp B→A at 90 min, 10 µM for CC(C(=O)O)c1cccc(C(=O)c2ccccc2)c1 (stereo not shown) [Ketoprofen]
Result block: 16.1

----------
Exercise: for every item that follows, state its recorded pKi.
TGT: SARS-CoV-2 NSP3 Mac1 (Severe acute respiratory syndrome coronavirus 2)
ASSAY: biochemical
Assay type: binding
STATED CONDITIONS: read-out: Ki***
Notebook: values listed as pKi are -log10 of the concentration (mol/L).

Query block: Read off the recorded pKi for O=C(O)C1(F)CN(c2ncnc3[nH]c4cc(F)ccc4c23)CC12COC2 (stereo not drawn)
Result block: 4.69

Query block: Read off the recorded pKi for Nc1nc(N2CC3(CCC3)C(F)(C(=O)O)C2)c2c(n1)[nH]c1cc(F)ccc12 (stereo not drawn)
Result block: 4.67

Query block: Read off the recorded pKi for O=C(O)CCC1CN(c2ncnc3[nH]c4cc(F)ccc4c23)CCO1 (stereo not drawn)
Result block: 4.22

----------
TGT: SARS-CoV-2 NSP3 Mac1 (Severe acute respiratory syndrome coronavirus 2)
Assay type: binding
Set-up: contains a conserved macrodomain enzyme (Mac1)
STATED CONDITIONS: DSF dose responsiveness, 1 µM nsp3 mac1; adj p given
MEASURE: Spearman est (compound concentration vs apparent Tm)
Response field accepts a number only; no unit should be typed.

Query block: Read off the recorded Spearman est (compound concentration vs apparent Tm) for CC1CN(C(=O)CCc2nc(-c3ccncc3)no2)C1c1ccccc1 (stereo not drawn) [ZINC000173980856]
Result block: 0.61

Query block: Read off the recorded Spearman est (compound concentration vs apparent Tm) for CN(Cc1nnc2c(=O)[nH]ccn12)c1ccc2nccnc2n1 [ZINC001472868186]
Result block: 0.79

Query block: Read off the recorded Spearman est (compound concentration vs apparent Tm) for O=C(c1ncnc2[nH]ccc12)N1CC=CC12CCCCC2 [ZINC000827900828]
Result block: −0.37

Query block: Read off the recorded Spearman est (compound concentration vs apparent Tm) for O=c1[nH]nc(C2CCCN(c3ncnc4[nH]c(Cl)cc34)C2)o1 (stereo not drawn) [ZINC001559178387]
Result block: −0.22

Query block: Read off the recorded Spearman est (compound concentration vs apparent Tm) for Cn1cnc(C(=O)NCC2CCN2C(=O)c2ncnc3[nH]ccc23)c1 (stereo not drawn) [ZINC000949397098]
Result block: 0.3

Query block: Read off the recorded Spearman est (compound concentration vs apparent Tm) for Cc1nnc(CNc2cnc(N)c(Cl)n2)n1C1CC1 [ZINC000893101964]
Result block: −0.12

Query block: Read off the recorded Spearman est (compound concentration vs apparent Tm) for O=C(COC(=O)c1ccc2nsnc2c1)c1ccccc1 [ZINC000779122380]
Result block: 0.81

Query block: Read off the recorded Spearman est (compound concentration vs apparent Tm) for Cc1nc(S(=O)(=O)NCc2ccc(-c3ccncc3)cc2)cn1C [ZINC000352487041]
Result block: 0.73

Query block: Read off the recorded Spearman est (compound concentration vs apparent Tm) for O=C(Nc1ccc(C(=O)N[C@H]2c3ccccc3CC[C@H]2C(=O)O)cc1)NC1CC1 [8539_0030]
Result block: 0.86

Query block: Read off the recorded Spearman est (compound concentration vs apparent Tm) for CC1C(=O)CCCN1C(=O)c1ccnc2[nH]cnc12 (stereo not drawn) [ZINC000885048835]
Result block: 0.23

Query block: Read off the recorded Spearman est (compound concentration vs apparent Tm) for O=C(O)CCC1CCCN(c2ncnc3[nH]c4cc(F)ccc4c23)C1 (stereo not drawn) [LL1_0018]
Result block: 0.96

Query block: Read off the recorded Spearman est (compound concentration vs apparent Tm) for O=C(NC1c2cccc(O)c2CC1C(=O)O)c1cnc2c(c1)CCCN2 (stereo not drawn) [8539_0006]
Result block: −0.43

Query block: Read off the recorded Spearman est (compound concentration vs apparent Tm) for CS(=O)(=O)C1CCCN(c2ncnc3[nH]c(Cl)cc23)C1 (stereo not drawn) [ZINC000865679550]
Result block: 0.71

Query block: Read off the recorded Spearman est (compound concentration vs apparent Tm) for CN(CCCC(=O)O)C(=O)c1ncnc2[nH]ccc12 [REAL250002155324]
Result block: −0.27

Query block: Read off the recorded Spearman est (compound concentration vs apparent Tm) for O=C(Nc1ccccc1)Nc1ccc(C(=O)NC2c3cccc(O)c3CC2C(=O)O)cc1 (stereo not drawn) [Z8539_0023]
Result block: 0.81

Query block: Read off the recorded Spearman est (compound concentration vs apparent Tm) for Cc1ccc(-c2noc(C3CC(=O)N(c4cn[nH]c4)C3)n2)cc1 (stereo not drawn) [ZINC000189176019]
Result block: −0.48

Query block: Read off the recorded Spearman est (compound concentration vs apparent Tm) for CC1(C)CCC(C(=O)O)CN1C(=O)c1ncnc2[nH]ccc12 (stereo not drawn) [FRESH00012962804]
Result block: 0.54

Query block: Read off the recorded Spearman est (compound concentration vs apparent Tm) for NC(=O)c1ccc(Cc2noc(CCc3ccoc3)n2)cc1 [ZINC000546336511]
Result block: −0.79

Query block: Read off the recorded Spearman est (compound concentration vs apparent Tm) for Cc1[nH]c2ncnc(N3CCOC(CC(F)(F)F)C3)c2c1C (stereo not drawn) [Z2051]
Result block: 0.51

Query block: Read off the recorded Spearman est (compound concentration vs apparent Tm) for O=C(c1c(F)ccc(O)c1F)N1CCC(Oc2cccc(F)c2)C1 (stereo not drawn) [ZINC000368135547]
Result block: −0.88

Query block: Read off the recorded Spearman est (compound concentration vs apparent Tm) for Cc1nc(Cc2noc(Cc3ccc4[nH]ncc4c3)n2)no1 [ZINC000345855262]
Result block: −0.06

Query block: Read off the recorded Spearman est (compound concentration vs apparent Tm) for Cc1nc(Cc2noc(-c3ncnc4[nH]ccc34)n2)no1 [ZINC000904346960]
Result block: 0.21

Query block: Read off the recorded Spearman est (compound concentration vs apparent Tm) for CN(Cc1nnc2c(=O)[nH]ccn12)C(=O)COC1CC1 [ZINC001364630288]
Result block: 0.73

Query block: Read off the recorded Spearman est (compound concentration vs apparent Tm) for CNc1cc(-c2noc(CN3CCCC3=O)n2)ncn1 [ZINC000904236028]
Result block: −0.56

Query block: Read off the recorded Spearman est (compound concentration vs apparent Tm) for O=C1CCCN1Cc1cccc(N2C(=O)N[C@@H](CO)C2=O)c1 [ZINC001320848619]
Result block: 0.18

Query block: Read off the recorded Spearman est (compound concentration vs apparent Tm) for O=C(O)CC1CN(c2ncnc3[nH]ccc23)CC2(CCC2)O1 (stereo not drawn) [F6831]
Result block: 0.94

Query block: Read off the recorded Spearman est (compound concentration vs apparent Tm) for Nc1ncnc(SCCc2cccc(Cl)c2Cl)n1 [ZINC001641481086]
Result block: 0.6

Query block: Read off the recorded Spearman est (compound concentration vs apparent Tm) for O=c1[nH]ccn2c(CSc3nc4ccccc4s3)nnc12 [ZINC001458791015]
Result block: 0.66

Query block: Read off the recorded Spearman est (compound concentration vs apparent Tm) for CC1(C(=O)O)CCN(C(=O)Cc2c[nH]c3nccc(Cl)c23)C1 (stereo not drawn) [FRESH00014134848]
Result block: 0.41

Query block: Read off the recorded Spearman est (compound concentration vs apparent Tm) for CCOC(=O)C(NC(=O)c1c[nH]c2ncncc12)c1c[nH]c2ccccc12 (stereo not drawn) [Z4661819167]
Result block: 0.82
